Hi there, I'd appreciate the recorded pIC50 for every entry that follows.
# tested on: Histidine tagged HIF-2α protein containing PAS-B domain (240-350) (Homo sapiens, UniProt Q99814)
# Construct: Histidine tagged HIF-2α protein containing PAS-B domain (240-350) was prepared and purified in house; made in house
# assay info: HIF-2α Scintillation Proximity Assay (SPA)
# Format: binding
# assay context: 50 nM HIF-2α protein, 25 nM radiolabeled tracer; read-out: HIF-2α Scintillation Proximity Assay
pIC50: −log10 of the molar value.

Field pIC50 (entry N#Cc1cc(F)cc(Oc2ccc(S(=O)(=O)C(F)(F)F)c3cn[nH]c23)c1 [Example 70] ) reads 5.00 to 6.00

The molecule listed as Fc1cc(F)cc(Oc2ccc(C(F)(F)F)c3[nH]ncc23)c1 [Example 26] has a reported pIC50 of 5.00 to 6.00

For record O=S(=O)(c1ccc(Oc2ccc(F)c(F)c2)c2cn[nH]c12)C(F)(F)F [Example 37] the listed pIC50 is 5.00 to 6.00

The measured pIC50 associated with O=S(=O)(c1ccc(Oc2cc(F)cc(Cl)c2)c2cn[nH]c12)C(F)(F)F [Example 40] reads > 6.00

The molecule CS(=O)(=O)c1ccc(Oc2ccc(F)cc2F)c2cn[nH]c12 [Example 4] showed pIC50 equal to < 5.00

Item: CS(=O)(=O)c1ccc(Nc2cc(F)cc(C#N)c2)c2c(F)n[nH]c12 [Example 2] | pIC50: < 5.00

According to the records, this molecule O=S(=O)(c1ccc(Oc2cccc(Cl)c2)c2cn[nH]c12)C(F)(F)F [Example 41] displays pIC50 of > 6.00

Record N#Cc1cc(Oc2ccc(S(=O)(=O)C(F)(F)F)c3[nH]ncc23)cc(C(F)(F)F)c1 [Example 39] , field pIC50: 5.00 to 6.00

Measured pIC50, O=S(=O)(c1ccc(NCc2ccccc2F)c2cn[nH]c12)C(F)(F)F [Example 50] : < 5.00

So, N#Cc1cncc(Oc2ccc(S(=O)(=O)C(F)(F)F)c3[nH]ncc23)c1 [Example 24] ? Its pIC50 was 5.00 to 6.00

What the record says about N#Cc1cc(C#N)cc(Oc2ccc(S(=O)(=O)C(F)(F)F)c3[nH]ncc23)c1 [Example 22] : pIC50 is 5.00 to 6.00

Reported pIC50 of N#Cc1cc(F)cc(Nc2ccc(S(=O)(=O)C(F)(F)F)c3[nH]ncc23)c1 [Example 45] : 5.00 to 6.00

Consider O=S(=O)(c1ccc(Oc2cccc(Cl)c2)c2c(Cl)n[nH]c12)C(F)(F)F [Example 63] . Its measured pIC50 is 5.00 to 6.00

The measured pIC50 associated with O=S(=O)(c1ccc(Oc2ccc(F)c(Cl)c2)c2cn[nH]c12)C(F)(F)F [Example 38] reads 5.00 to 6.00

// CS(=O)(=O)c1ccc(Oc2cc(F)cc(C#N)c2)c2c(C#N)n[nH]c12 [Example 10] : pIC50 value = < 5.00

For reference, reported pIC50 for N#Cc1cc(F)cc(Oc2ccc(S(=O)(=O)C(F)F)c3[nH]ncc23)c1 [Example 12] stands at 5.00 to 6.00

// pIC50 value for N#Cc1cc(F)cc(Oc2cnc(C(F)(F)F)c3[nH]ncc23)c1 [Example 68] : 5.00 to 6.00

Field pIC50 (entry O=S(=O)(c1ccc(Cc2cccc(Cl)c2)c2cn[nH]c12)C(F)(F)F [Example 59] ) reads < 5.00

###

Give measured pIC50 for each item. Keep answers brief.
# tested on: HIF-2α (Homo sapiens, UniProt Q99814)
# Construct: endogenous in cells; host or cells: 786-O cells (ATCC CRL-1932) stably carrying the Cignal Lenti HIF Luc Reporter
# Sequence (Q99814 whole entry): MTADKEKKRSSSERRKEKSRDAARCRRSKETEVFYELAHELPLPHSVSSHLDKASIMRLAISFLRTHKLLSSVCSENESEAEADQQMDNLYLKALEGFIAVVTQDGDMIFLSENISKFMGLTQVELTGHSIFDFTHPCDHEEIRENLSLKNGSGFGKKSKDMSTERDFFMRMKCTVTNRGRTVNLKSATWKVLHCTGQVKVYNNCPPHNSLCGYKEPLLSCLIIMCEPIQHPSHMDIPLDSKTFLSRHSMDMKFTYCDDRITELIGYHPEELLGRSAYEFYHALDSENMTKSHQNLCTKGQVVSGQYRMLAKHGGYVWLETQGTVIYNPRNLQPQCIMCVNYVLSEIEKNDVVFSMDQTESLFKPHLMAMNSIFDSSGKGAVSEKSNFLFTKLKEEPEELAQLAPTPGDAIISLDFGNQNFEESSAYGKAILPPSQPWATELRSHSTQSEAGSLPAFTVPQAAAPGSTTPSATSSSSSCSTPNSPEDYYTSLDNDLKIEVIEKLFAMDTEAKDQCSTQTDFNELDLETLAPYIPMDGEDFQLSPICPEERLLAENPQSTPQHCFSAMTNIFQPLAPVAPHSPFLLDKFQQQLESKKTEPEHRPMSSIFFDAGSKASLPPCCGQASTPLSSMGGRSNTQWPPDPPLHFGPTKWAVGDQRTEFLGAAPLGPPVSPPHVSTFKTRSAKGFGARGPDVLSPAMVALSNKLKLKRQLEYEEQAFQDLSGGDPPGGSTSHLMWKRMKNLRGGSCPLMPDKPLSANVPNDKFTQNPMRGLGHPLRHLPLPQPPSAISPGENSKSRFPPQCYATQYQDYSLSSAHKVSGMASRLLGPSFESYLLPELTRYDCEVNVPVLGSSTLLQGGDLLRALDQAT
# assay info: HIF-2α Luciferase Reporter Assay
# Type: cell-based
# assay context: HIF-Luc-786-0 cells, 20 hours incubation, luciferase activity; read-out: HIF-2α Luciferase Assay
pIC50: −log10 of the molar value.

N#Cc1cc(F)cc(Oc2ccc(S(=O)(=O)C(F)(F)F)c3cn[nH]c23)c1 yielded pIC50 of 5.00 to 6.00

Data point: O=S(=O)(c1ccc(Oc2cccc(C(F)(F)F)c2)c2cn[nH]c12)C(F)(F)F ; pIC50 = < 5.00

Input O=S(=O)(c1ccc(NCc2ccc(F)cc2F)c2cn[nH]c12)C(F)(F)F . Output pIC50: < 5.00

The compound Fc1cc(F)cc(Oc2ccc(C(F)(F)F)c3[nH]ncc23)c1 showed pIC50 equal to 5.00 to 6.00

Lookup result for CS(=O)(=O)c1ccc(Nc2cc(F)cc(C#N)c2)c2cn[nH]c12 ; measured pIC50: 5.00 to 6.00

###

Give measured IC50 for each item. Keep answers brief.
# tested on: Histidine tagged HIF-2α protein containing PAS-B domain (240-350) (Homo sapiens)
# Construct: Histidine tagged HIF-2α protein containing PAS-B domain (240-350) was prepared and purified in house; made in house
# assay info: HIF-2α Scintillation Proximity Assay (SPA)
# Type: binding
# assay context: 50 nM HIF-2α protein, 25 nM radiolabeled tracer; read-out: HIF-2α Scintillation Proximity Assay
# Source text: Tritium labeled compound N-(3-chlorophenyl)-4-nitro-2,1,3-benzoxadiazol-5-amine was obtained from American Radiolabeled Chemicals Inc. and copper chelate PVT SPA beads were from PerkinElmer (Cat #RPNQ0095). […] Compounds solubilized in DMSO were dispensed into a white 384-well polystyrene non-binding flat clear bottom plate (Greiner Bio-One, Cat #781903) using an HP D300 dispenser. […] The plate was read using a MicroBeta Microplate Counter (PerkinElmer) for luminescence detection. […]

Entry O=S(=O)(c1ccc(NC2CC(F)(F)C2)c2cn[nH]c12)C(F)(F)F ; IC50 = 1 to 10 µM

The compound identified as N#Cc1cc(Oc2ccc(S(=O)(=O)C(F)(F)F)c3[nH]ncc23)ccc1Cl registered its IC50 at 1 to 10 µM

// IC50 lookup, compound = N#Cc1cc(Nc2ccc(S(=O)(=O)C(F)(F)F)c3[nH]ncc23)ccc1F , result: > 10 µM

// N#Cc1cc(F)cc(Oc2ccc(S(=O)(=O)C(F)F)c3[nH]nc(I)c23)c1 : IC50 value = > 10 µM

###

# tested on: Histidine tagged HIF-2α protein containing PAS-B domain (240-350) (Homo sapiens)
# Construct: Histidine tagged HIF-2α protein containing PAS-B domain (240-350) was prepared and purified in house; made in house
# assay info: HIF-2α Scintillation Proximity Assay (SPA)
# Format: binding
# assay context: 50 nM HIF-2α protein, 25 nM radiolabeled tracer; read-out: HIF-2α Scintillation Proximity Assay
Assignment: determine reported IC50 for the given compounds.

According to the records, this compound N#Cc1cc(Oc2ccc(S(=O)(=O)C(F)(F)F)c3[nH]ncc23)ccc1F displays IC50 of 1 to 10 µM

IC50 in this record for Fc1cc(Cl)cc(Oc2cnc(C(F)(F)F)c3[nH]ncc23)c1 : 1 to 10 µM

Lab note: measured IC50 of O=S(=O)(c1ccc(NCc2cc(Cl)cc(Cl)c2)c2cn[nH]c12)C(F)(F)F was > 10 µM

Briefly, IC50 measured for O=S(=O)(c1ccc(Oc2ccc(F)cc2)c2cn[nH]c12)C(F)(F)F : > 10 µM

Measured IC50, O=S(=O)(c1ccc(NCc2ccccc2)c2cn[nH]c12)C(F)(F)F : > 10 µM

Value of measured IC50 for the entry CS(=O)(=O)c1ccc(Oc2cc(F)cc(Cl)c2)c2cn[nH]c12 : > 10 µM

Recorded result, O=S(=O)(c1ccc(Oc2cc(Cl)cc(OC(F)(F)F)c2)c2cn[nH]c12)C(F)(F)F , IC50: > 10 µM

Documented IC50 of N#Cc1cc(F)cc(Nc2ccc(C(F)(F)F)c3[nH]ncc23)c1 : 1 to 10 µM

The recorded IC50 for O=S(=O)(c1ccc(Nc2cc(F)cc(Cl)c2)c2cn[nH]c12)C(F)(F)F is 1 to 10 µM

###

# tested on: HIF-2α (Homo sapiens, UniProt Q99814)
# Construct: endogenous in cells; host or cells: 786-O cells (ATCC CRL-1932) stably carrying the Cignal Lenti HIF Luc Reporter
# assay info: HIF-2α Luciferase Reporter Assay
# Type: cell-based
# assay context: HIF-Luc-786-0 cells, 20 hours incubation, luciferase activity; read-out: HIF-2α Luciferase Assay
Please respond with reported IC50 for every item in the list.

Field IC50 (entry O=S(=O)(c1ccc(Oc2cccc(Cl)c2)c2cn[nH]c12)C(F)(F)F [Example 41] ) reads 1 to 10 µM

The value of IC50 measured for the molecule O=S(=O)(c1ccc(NC2CC(F)(F)C2)c2cn[nH]c12)C(F)(F)F [Example 57] turned out to be > 10 µM

The reported value for O=S(=O)(c1ccc(Oc2ccc(F)c(F)c2)c2cn[nH]c12)C(F)(F)F [Example 37] in terms of IC50 is 1 to 10 µM

Lookup result for O=S(=O)(c1ccc(Oc2cc(F)cc(F)c2)c2cn[nH]c12)C(F)(F)F [Example 25] ; measured IC50: < 1 µM

Per the record, N#Cc1cc(F)cc(Oc2c(F)cc(S(=O)(=O)C(F)(F)F)c3[nH]ncc23)c1 [Example 64] has IC50 of > 10 µM

# IC50 (molecule: CS(=O)(=O)c1ccc(Oc2cc(F)cc(C#N)c2)c2cn[nH]c12 [Example 3] ) is > 10 µM

The recorded IC50 for N#Cc1cc(F)cc(Nc2cc(Cl)cc3[nH]ncc23)c1 [Example 65] is 1 to 10 µM

Please fill in: IC50 reported for O=S(=O)(c1ccc(Oc2ccc(F)cc2)c2cn[nH]c12)C(F)(F)F [Example 18] = 1 to 10 µM

Record summary for N#Cc1cc(F)cc(Nc2ncnc3[nH]ncc23)c1 [Example 67] : reported IC50 = 1 to 10 µM
